// data source = ChEMBL document CHEMBL1132229

testTarget: Phenylethanolamine N-methyltransferase (Bos taurus)
Sequence (P10938 whole entry): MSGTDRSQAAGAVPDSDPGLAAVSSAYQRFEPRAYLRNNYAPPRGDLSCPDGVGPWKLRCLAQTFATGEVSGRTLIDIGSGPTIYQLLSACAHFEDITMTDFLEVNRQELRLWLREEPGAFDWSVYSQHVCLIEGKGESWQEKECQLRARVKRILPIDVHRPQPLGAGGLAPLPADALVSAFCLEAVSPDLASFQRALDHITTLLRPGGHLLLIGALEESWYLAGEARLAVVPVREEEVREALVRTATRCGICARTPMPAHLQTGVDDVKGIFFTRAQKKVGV
assayProcedure: In vitro inhibitory activity against bovine adrenal Phenylethanolamine N-Methyltransferase (for +- stereoisomer)
attributeMeasured: Ki (nM)
Response body: numeric value in nM, unit text excluded.

Note down Ki recorded for OCC1Cc2ccccc2CN1 (stereo unspecified)
1100

---

testTarget: Phenylethanolamine N-methyltransferase (Bos taurus)
assayProcedure: Inhibition of bovine adrenal Phenylethanolamine N-Methyltransferase
Measured pKi values are reported for all entries that follow.
# reply with the number alone; pKi is -log10 of concentration in mol/L

INSERT INTO results (compound, resultnumber) VALUES
  ('O=[N+]([O-])c1ccc2c(c1)CNC(CO)C2 (stereo unspecified)', 6.54);

In the following, a different compound is considered.
Note down pKi recorded for NS(=O)(=O)c1ccc2c(c1)CNC(CO)C2 (stereo unspecified)
6.47

---

assayProcedure: Relative affinity for PNMT and alpha2 adrenergic receptors
attributeMeasured: Selectivity

Note down Selectivity recorded for COCC1Cc2ccccc2CN1 (stereo not drawn)
0.3

---

testTarget: Phenylethanolamine N-methyltransferase (Bos taurus)
Sequence (P10938 whole entry): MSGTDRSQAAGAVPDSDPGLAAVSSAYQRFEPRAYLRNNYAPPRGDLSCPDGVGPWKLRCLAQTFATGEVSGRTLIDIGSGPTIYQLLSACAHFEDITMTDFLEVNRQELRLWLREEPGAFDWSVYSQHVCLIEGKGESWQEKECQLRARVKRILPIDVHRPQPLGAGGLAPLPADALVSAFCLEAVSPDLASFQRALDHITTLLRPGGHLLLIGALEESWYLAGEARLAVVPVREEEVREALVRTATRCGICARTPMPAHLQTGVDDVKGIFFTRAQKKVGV
assayProcedure: Inhibition of bovine adrenal Phenylethanolamine N-Methyltransferase
attributeMeasured: pKi
# reply with the number alone; pKi is -log10 of concentration in mol/L

INSERT INTO measurements (compound, resultnumber) VALUES
  ('O=[N+]([O-])c1ccc2c(c1)CN[C@H](CO)C2', 6.05),
  ('C[C@H]1Cc2ccc([N+](=O)[O-])cc2CN1', 6.60),
  ('OC[C@@H]1Cc2ccccc2CN1', 4.82),
  ('C[C@@H]1Cc2ccc([N+](=O)[O-])cc2CN1', 5.89),
  ('CC1Cc2ccc([N+](=O)[O-])cc2CN1 (centres undefined)', 6.31);

Note down pKi recorded for CS(=O)(=O)c1ccc2c(c1)CNC(CO)C2 (centres undefined)
6.19

Note down pKi recorded for OC[C@H]1Cc2ccccc2CN1
6.25

Note down pKi recorded for COCC1Cc2ccccc2CN1 (centres undefined)
5.04

Note down pKi recorded for O=[N+]([O-])c1ccc2c(c1)CN[C@@H](CO)C2
6.62

---

Measured Selectivity values are reported for all entries that follow.
assayProcedure: Relative affinity for PNMT and alpha2 adrenergic receptors
Reply briefly: the number, and no unit.

These solved cases illustrate the format of a correct answer.
INSERT INTO assay_data (compound, resultnumber) VALUES
  ('CC1Cc2ccc([N+](=O)[O-])cc2CN1 (configuration not stated)', 63),
  ('CS(=O)(=O)c1ccc2c(c1)CNC(CO)C2 (configuration not stated)', 1000),
  ('OC[C@H]1Cc2ccccc2CN1', 7.9),
  ('OCC1Cc2ccccc2CN1 (configuration not stated)', 6),
  ('OC[C@@H]1Cc2ccccc2CN1', 1.1),
  ('C[C@@H]1Cc2ccc([N+](=O)[O-])cc2CN1', 41);

Note down Selectivity recorded for NS(=O)(=O)c1ccc2c(c1)CNC(CO)C2 (configuration not stated)
4100
